# Target of assay: xanthine oxidase (Bos taurus, UniProt P80457)
# Sequence (P80457 2-1332 limits assumed): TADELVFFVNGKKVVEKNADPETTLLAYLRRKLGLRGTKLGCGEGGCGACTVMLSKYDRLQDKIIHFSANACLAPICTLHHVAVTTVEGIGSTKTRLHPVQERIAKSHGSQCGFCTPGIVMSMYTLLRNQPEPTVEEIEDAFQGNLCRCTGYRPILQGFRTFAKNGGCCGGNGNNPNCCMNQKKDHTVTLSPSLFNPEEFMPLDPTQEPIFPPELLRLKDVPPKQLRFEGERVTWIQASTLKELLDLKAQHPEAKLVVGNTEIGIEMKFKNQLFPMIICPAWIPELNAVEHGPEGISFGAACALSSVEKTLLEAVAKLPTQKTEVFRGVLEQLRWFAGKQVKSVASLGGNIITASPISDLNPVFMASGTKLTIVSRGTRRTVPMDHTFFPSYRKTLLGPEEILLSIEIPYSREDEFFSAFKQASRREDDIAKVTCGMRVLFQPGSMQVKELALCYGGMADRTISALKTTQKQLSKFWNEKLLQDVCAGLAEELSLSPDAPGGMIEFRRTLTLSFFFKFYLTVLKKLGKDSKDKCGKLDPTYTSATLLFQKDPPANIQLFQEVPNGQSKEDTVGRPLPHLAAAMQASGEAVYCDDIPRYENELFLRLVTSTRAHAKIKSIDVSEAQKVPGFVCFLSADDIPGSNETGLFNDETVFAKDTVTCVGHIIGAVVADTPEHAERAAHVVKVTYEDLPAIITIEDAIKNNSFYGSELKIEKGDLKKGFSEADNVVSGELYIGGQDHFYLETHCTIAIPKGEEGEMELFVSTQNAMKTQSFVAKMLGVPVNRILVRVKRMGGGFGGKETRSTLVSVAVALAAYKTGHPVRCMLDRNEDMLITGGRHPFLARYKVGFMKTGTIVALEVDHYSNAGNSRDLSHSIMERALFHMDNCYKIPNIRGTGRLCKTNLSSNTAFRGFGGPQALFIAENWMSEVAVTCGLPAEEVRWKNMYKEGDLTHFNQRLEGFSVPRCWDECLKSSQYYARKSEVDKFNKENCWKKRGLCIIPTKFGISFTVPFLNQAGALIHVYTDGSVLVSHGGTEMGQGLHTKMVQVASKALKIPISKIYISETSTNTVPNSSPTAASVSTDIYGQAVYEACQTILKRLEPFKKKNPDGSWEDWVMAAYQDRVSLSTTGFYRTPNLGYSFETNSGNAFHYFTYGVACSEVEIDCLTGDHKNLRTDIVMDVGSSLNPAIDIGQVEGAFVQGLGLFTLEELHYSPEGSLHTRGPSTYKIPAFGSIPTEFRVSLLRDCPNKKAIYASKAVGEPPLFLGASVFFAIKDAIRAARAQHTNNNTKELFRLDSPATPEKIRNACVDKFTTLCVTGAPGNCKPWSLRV
Quantity measured: IC50 (µM)

{"Molecule": "COc1ccc(/C=C/C(=O)c2ccccc2)cc1OC [Compound 15, 3,4-dimethoxychalcone]", "Target of assay": "xanthine oxidase (Bos taurus, UniProt P80457)", "Quantity measured": "IC50", "Cmp": ">", "Result number": 100}
{"Molecule": "COc1ccc(C(=O)/C=C/c2ccc(O)c(O)c2)c(O)c1C(=O)/C=C/c1ccc(O)c(O)c1 [Compound 13]", "Target of assay": "xanthine oxidase (Bos taurus, UniProt P80457)", "Quantity measured": "IC50", "Cmp": "=", "Result number": 2.4}
{"Molecule": "O=C(/C=C/c1ccccc1)c1ccccc1 [Compound 18, chalcone]", "Target of assay": "xanthine oxidase (Bos taurus, UniProt P80457)", "Quantity measured": "IC50", "Cmp": ">", "Result number": 100}
{"Molecule": "COc1ccc(C(=O)/C=C/c2ccc(O)c(O)c2)c(O)c1 [Compound 10, 3,4,2ʹ-trihydroxy-4ʹ-methoxychalcone]", "Target of assay": "xanthine oxidase (Bos taurus, UniProt P80457)", "Quantity measured": "IC50", "Cmp": "=", "Result number": 19.2}
{"Molecule": "COc1ccc(/C=C/C(=O)c2ccc(O)cc2O)cc1O [Compound 8, 3,2ʹ,4ʹ-trihydroxy-4-methoxychalcone]", "Target of assay": "xanthine oxidase (Bos taurus, UniProt P80457)", "Quantity measured": "IC50", "Cmp": "=", "Result number": 36.7}
{"Molecule": "COc1ccc(/C=C/C(=O)c2ccc(O)cc2O)cc1OC [Compound 9, 2ʹ,4ʹ-dihydroxy-3,4-dimethoxychalcone]", "Target of assay": "xanthine oxidase (Bos taurus, UniProt P80457)", "Quantity measured": "IC50", "Cmp": ">", "Result number": 100}
{"Molecule": "COc1ccc(/C=C/C(=O)c2ccc(O)cc2O)c(O)c1 [Compound 12, 2,2ʹ,4ʹ-trihydroxy-4-methoxychalcone]", "Target of assay": "xanthine oxidase (Bos taurus, UniProt P80457)", "Quantity measured": "IC50", "Cmp": "=", "Result number": 21.8}
{"Molecule": "O=C(/C=C/c1ccc(O)cc1O)c1ccc(O)cc1O [Compound 6, 2,4,2′,4′-tetrahydroxychalcone]", "Target of assay": "xanthine oxidase (Bos taurus, UniProt P80457)", "Quantity measured": "IC50", "Cmp": "=", "Result number": 16.3}
{"Molecule": "O=C(/C=C/c1ccc(O)c(O)c1)c1ccc(O)cc1O [Compound 5, 3,4,2ʹ,4ʹ-tetrahydroxychalcone]", "Target of assay": "xanthine oxidase (Bos taurus, UniProt P80457)", "Quantity measured": "IC50", "Cmp": "=", "Result number": 4.3}
{"Molecule": "COc1ccc(C(=O)/C=C/c2ccc(OC)c(OC)c2)c(O)c1 [Compound 16, 2ʹ-hydroxy-3,4,4ʹ-trimethoxychalcone]", "Target of assay": "xanthine oxidase (Bos taurus, UniProt P80457)", "Quantity measured": "IC50", "Cmp": ">", "Result number": 100}
{"Molecule": "O=C(/C=C/c1ccc(O)c(O)c1)c1ccccc1 [Compound 3, 3,4-dihydroxychalcone]", "Target of assay": "xanthine oxidase (Bos taurus, UniProt P80457)", "Quantity measured": "IC50", "Cmp": "=", "Result number": 40.9}
{"Molecule": "COc1ccc(C(=O)/C=C/c2ccc(O)c(O)c2)c(OC)c1 [Compound 11, 3,4-dihydroxy-2ʹ,4ʹ-dimethoxychalcone]", "Target of assay": "xanthine oxidase (Bos taurus, UniProt P80457)", "Quantity measured": "IC50", "Cmp": "=", "Result number": 2.5}
{"Molecule": "CC(=O)Oc1ccc(C(=O)/C=C/c2ccc(OC(C)=O)c(OC(C)=O)c2)c(O)c1 [Compound 17, 3,4,4ʹ-triacetoxy-2ʹ-hydroxychalcone]", "Target of assay": "xanthine oxidase (Bos taurus, UniProt P80457)", "Quantity measured": "IC50", "Cmp": ">", "Result number": 100}
{"Molecule": "O=C(/C=C/c1ccccc1)c1ccc(O)cc1O [Compound 4, 2′,4′-dihydroxychalcone]", "Target of assay": "xanthine oxidase (Bos taurus, UniProt P80457)", "Quantity measured": "IC50", "Cmp": ">", "Result number": 100}
{"Molecule": "COc1ccc(/C=C/C(=O)c2ccccc2)cc1O [Compound 14, 3-hydroxy-4-methoxychalcone]", "Target of assay": "xanthine oxidase (Bos taurus, UniProt P80457)", "Quantity measured": "IC50", "Cmp": ">", "Result number": 100}

// data source = paper PMC5063830
